- measurementProtocol: Solubility of compound (I) tosylate in various dissolution media with time
- Format: physicochemical
- setupConditions: aqueous buffer, thermodynamic from solid; 0.2 M Phosphate buffer pH 6.5, 3 h, 37° C.
Structures can show the parent of a compound that is named as a salt.
propertyName: solubility at 3 h (µM)
Kindly provide the numeric value in µM only, without the unit symbol.

Notebook: Cc1c(-c2ccnn2C)cc(C(=O)NCc2ccc(S(C)(=O)=O)cn2)c(=O)n1-c1cccc(C(F)(F)F)c1 [compound (I) tosylate Form A, 4-methylbenzenesulfonate] , solubility at 3 h read as 363

---

- measurementProtocol: Solubility of compound (I) tosylate in various dissolution media with time
- Assay type: physicochemical
- setupConditions: aqueous buffer, thermodynamic from solid; 0.2 M Phosphate buffer pH 3.0, 3 h, 37° C.
Counter-ions that a name gives are not always drawn.
propertyName: solubility at 3 h (µM)
Field format: number, assumed µM, no unit text.

Measured solubility at 3 h of Cc1c(-c2ccnn2C)cc(C(=O)NCc2ccc(S(C)(=O)=O)cn2)c(=O)n1-c1cccc(C(F)(F)F)c1 [compound (I) tosylate Form A, 4-methylbenzenesulfonate] : 492

---

- measurementProtocol: Solubility of compound (I) tosylate in various dissolution media with time
- Format: physicochemical
- setupConditions: aqueous buffer, thermodynamic from solid; 0.2 M Phosphate buffer pH 8, 1 h, 37° C.
Counter-ions that a name gives are not always drawn.
propertyName: solubility at 1 h (µM)
Report only the number, with the unit µM understood.

# solubility at 1 h of Cc1c(-c2ccnn2C)cc(C(=O)NCc2ccc(S(C)(=O)=O)cn2)c(=O)n1-c1cccc(C(F)(F)F)c1 [compound (I) tosylate Form A, 4-methylbenzenesulfonate] = 412

---

- measurementProtocol: Solubility of compound (I) tosylate in various dissolution media with time
- Format: physicochemical
- setupConditions: aqueous buffer, thermodynamic from solid; 0.2 M Phosphate buffer pH 5.0, 24 h, 37° C.
Where a name gives a salt, the structure may show the parent alone.
propertyName: solubility at 24 h (µM)
Hi! Could you send only the number? It should be in µM, unit omitted.

Measured solubility at 24 h, Cc1c(-c2ccnn2C)cc(C(=O)NCc2ccc(S(C)(=O)=O)cn2)c(=O)n1-c1cccc(C(F)(F)F)c1 [compound (I) tosylate Form A, 4-methylbenzenesulfonate] : 12.2

---

- measurementProtocol: Solubility of compound (I) tosylate in various dissolution media with time
- Type: physicochemical
- setupConditions: aqueous buffer, thermodynamic from solid; 0.2 M Phosphate buffer pH 5.0, 3 h, 37° C.
Counter-ions that a name gives are not always drawn.
propertyName: solubility at 3 h (µM)
Report only the number, with the unit µM understood.

Quick note, solubility at 3 h for Cc1c(-c2ccnn2C)cc(C(=O)NCc2ccc(S(C)(=O)=O)cn2)c(=O)n1-c1cccc(C(F)(F)F)c1 [compound (I) tosylate Form A, 4-methylbenzenesulfonate] landed at 460

---

- measurementProtocol: Solubility of compound (I) tosylate in various dissolution media with time
- Assay type: physicochemical
- setupConditions: aqueous buffer, thermodynamic from solid; 0.2 M Phosphate buffer pH 8, 24 h, 37° C.
Structures can show the parent of a compound that is named as a salt.
propertyName: solubility at 24 h

The reported value for Cc1c(-c2ccnn2C)cc(C(=O)NCc2ccc(S(C)(=O)=O)cn2)c(=O)n1-c1cccc(C(F)(F)F)c1 [compound (I) tosylate Form A, 4-methylbenzenesulfonate] in terms of solubility at 24 h is 8.4 µM

---

- measurementProtocol: Solubility of compound (I) tosylate in various dissolution media with time
- Assay type: physicochemical
- setupConditions: simulated gastric fluid, thermodynamic from solid; 0.1 M HCl pH 1.0, 24 h, 37° C.
Where a name gives a salt, the structure may show the parent alone.
propertyName: solubility at 24 h (µM)
Numeric only. Scale: µM

# compound Cc1c(-c2ccnn2C)cc(C(=O)NCc2ccc(S(C)(=O)=O)cn2)c(=O)n1-c1cccc(C(F)(F)F)c1 [compound (I) tosylate Form A, 4-methylbenzenesulfonate] ; its solubility at 24 h = 58.4

---

- measurementProtocol: Solubility of compound (I) tosylate in various dissolution media with time
- Type: physicochemical
- setupConditions: simulated gastric fluid, thermodynamic from solid; 0.1 M HCl pH 1.0, 3 h, 37° C.
Counter-ions that a name gives are not always drawn.
propertyName: solubility at 3 h
A complete answer gives the number and then names the unit.

Entry Cc1c(-c2ccnn2C)cc(C(=O)NCc2ccc(S(C)(=O)=O)cn2)c(=O)n1-c1cccc(C(F)(F)F)c1 [compound (I) tosylate Form A, 4-methylbenzenesulfonate] , solubility at 3 h reported as 1100 µM

---

- measurementProtocol: Oral bioavailability study in the dog
- Type: in vivo, Beagle dogs
- setupConditions: Beagle, plasma, gelatine capsule, dose equivalent to 1.0 mg/kg compound (I) free base
Counter-ions that a name gives are not always drawn.
propertyName: bioavailability

Recorded result, Cc1c(-c2ccnn2C)cc(C(=O)NCc2ccc(S(C)(=O)=O)cn2)c(=O)n1-c1cccc(C(F)(F)F)c1 [compound (I) tosylate Form A, 4-methylbenzenesulfonate] , bioavailability: ~38%

---

- measurementProtocol: Solubility of compound (I) tosylate in various dissolution media with time
- Type: physicochemical
- setupConditions: simulated gastric fluid, thermodynamic from solid; 0.1 M HCl pH 1.0, 1 h, 37° C.
Counter-ions that a name gives are not always drawn.
propertyName: solubility at 1 h (µM)
Report only the number, with the unit µM understood.

Entry Cc1c(-c2ccnn2C)cc(C(=O)NCc2ccc(S(C)(=O)=O)cn2)c(=O)n1-c1cccc(C(F)(F)F)c1 [compound (I) tosylate Form A, 4-methylbenzenesulfonate] , solubility at 1 h reported as 1530
